systemTested: T1, human CTLA4 on CHO cells (human, UniProt P16410 36-223)
T1 construct: whole, on cells; CHO cells stably expressing CTLA4; also called huCTLA4
T1 sequence (P16410 36-223): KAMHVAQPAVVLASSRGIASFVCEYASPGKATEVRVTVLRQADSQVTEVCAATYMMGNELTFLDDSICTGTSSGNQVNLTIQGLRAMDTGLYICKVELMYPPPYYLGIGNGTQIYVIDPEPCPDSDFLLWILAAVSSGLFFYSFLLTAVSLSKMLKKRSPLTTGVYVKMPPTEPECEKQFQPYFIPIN
assayExplanation: flow cytometry, CHO/CTLA4 cells; MFI relative to WT CD80
measuredProperty: Fold change to WT CD80 (fold)

P. variant CD80 IgV-Fc E35D/M47L/A71G/L85M (Fc fusion, not shown: a dimerising Fc or GST) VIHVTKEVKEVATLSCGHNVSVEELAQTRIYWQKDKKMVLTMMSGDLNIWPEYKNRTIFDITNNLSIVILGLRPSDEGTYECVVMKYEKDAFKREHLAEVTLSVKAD
Q. variant CD80 IgV-Fc E35D/D46E (Fc fusion, not shown: a dimerising Fc or GST) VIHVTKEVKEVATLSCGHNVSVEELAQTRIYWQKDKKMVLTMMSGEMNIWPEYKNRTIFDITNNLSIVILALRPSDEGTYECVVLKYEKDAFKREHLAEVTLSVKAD
QUERY: From the items above, decide which of P and Q has the lower Fold change to WT CD80 reading. Choose, then provide that item's label.
RESULT: P
